The reported numbers originate from patent EP0409414B1.

Give measured IC50 for each item. Keep answers brief.
system: 5-LO (Homo sapiens, UniProt P09917)
Construct: incubating a test compound with heparinised human blood, prior to challenge with the calcium ionophore A23187; endogenous in cells
Sequence (P09917 whole entry): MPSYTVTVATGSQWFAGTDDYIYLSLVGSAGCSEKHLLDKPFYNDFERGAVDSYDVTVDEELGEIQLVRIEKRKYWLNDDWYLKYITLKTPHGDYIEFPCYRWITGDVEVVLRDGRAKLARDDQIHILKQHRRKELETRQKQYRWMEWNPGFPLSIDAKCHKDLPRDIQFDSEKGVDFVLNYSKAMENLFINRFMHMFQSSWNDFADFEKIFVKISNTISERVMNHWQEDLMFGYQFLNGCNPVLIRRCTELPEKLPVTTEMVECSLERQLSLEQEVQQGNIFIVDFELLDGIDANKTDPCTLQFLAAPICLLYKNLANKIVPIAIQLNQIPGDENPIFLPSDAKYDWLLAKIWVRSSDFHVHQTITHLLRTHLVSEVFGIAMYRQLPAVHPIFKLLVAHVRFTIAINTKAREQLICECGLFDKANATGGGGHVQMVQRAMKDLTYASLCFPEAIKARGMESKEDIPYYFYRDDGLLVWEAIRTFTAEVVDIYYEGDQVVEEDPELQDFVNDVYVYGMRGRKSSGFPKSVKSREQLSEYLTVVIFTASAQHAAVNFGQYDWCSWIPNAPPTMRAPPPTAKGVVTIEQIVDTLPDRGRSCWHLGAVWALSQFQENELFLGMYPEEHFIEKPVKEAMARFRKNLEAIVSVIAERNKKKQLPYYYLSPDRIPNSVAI
test.summary: heparinised human blood challenged with calcium ionophore A23187, radioimmunoassay of LTB4 (test b)
condition.context: individual compounds, read-out: IC50 against LTB4

Q: Value lookup for IC50; key = CO[C@H]1CCC[C@@]1(OC)c1cc(F)cc(Sc2ccc3ccccc3c2)c1 (racemic)
A: ~200 nM

Q: // IC50 lookup, key: C=CCO[C@@]1(c2cc(F)cc(Sc3ccc4ccccc4c3)c2)CCC[C@@H]1OC (racemic)
A: ~200 nM
